Assay Method Text: Steady state pharmacokinetics of ABT-894 after multiple oral doses
Format: in vivo, human
Reported Conditions: human, oral; 4 mg BID, multiple doses, steady state, plasma; read-out: AUC12
Reported Property: AUC

Problem: Consider the compound Clc1cc(N2C[C@@H]3CN[C@@H]3C2)cnc1Cl and give its measured AUC.
Result: 72 to 114 ng·h/mL

====

Assay Method Text: Steady state pharmacokinetics of ABT-894 after multiple oral doses
Format: in vivo, human
Reported Conditions: human, oral; 2 mg QD, multiple doses, steady state, plasma; read-out: AUC24
Reported Property: AUC

Problem: # lookup: AUC of Clc1cc(N2C[C@@H]3CN[C@@H]3C2)cnc1Cl
Result: ~46 ng·h/mL

====

Assay Method Text: Steady state pharmacokinetics of ABT-894 after multiple oral doses
Type: in vivo, human
Reported Conditions: human, oral; 4 mg BID, multiple doses, steady state, plasma
Reported Property: Cmax

Problem: For Clc1cc(N2C[C@@H]3CN[C@@H]3C2)cnc1Cl , what is its reported Cmax?
Result: 11 to 15 ng/mL

====

Assay Method Text: Steady state pharmacokinetics of ABT-894 after multiple oral doses
Format: in vivo, human
Reported Conditions: human, oral; 2 mg QD, multiple doses, steady state, plasma
Method: Steady state pharmacokinetic parameters of ABT-894 were determined in randomized, double-blind, placebo-controlled, parallel-design or crossover-design studies conducted with ABT-894. […] As used herein, AUC12 refers to the area under the curve determined for 12 hours. As used herein. AUC24 refers to the area under the curve determined for 24 hours.
Reported Property: Cmax

Problem: Which Cmax is listed for Clc1cc(N2C[C@@H]3CN[C@@H]3C2)cnc1Cl ?
Result: ~5 ng/mL
